These measurements were taken from patent US20240109865A1.

Target: UniProt:P21802
Sequence (P21802 22-821): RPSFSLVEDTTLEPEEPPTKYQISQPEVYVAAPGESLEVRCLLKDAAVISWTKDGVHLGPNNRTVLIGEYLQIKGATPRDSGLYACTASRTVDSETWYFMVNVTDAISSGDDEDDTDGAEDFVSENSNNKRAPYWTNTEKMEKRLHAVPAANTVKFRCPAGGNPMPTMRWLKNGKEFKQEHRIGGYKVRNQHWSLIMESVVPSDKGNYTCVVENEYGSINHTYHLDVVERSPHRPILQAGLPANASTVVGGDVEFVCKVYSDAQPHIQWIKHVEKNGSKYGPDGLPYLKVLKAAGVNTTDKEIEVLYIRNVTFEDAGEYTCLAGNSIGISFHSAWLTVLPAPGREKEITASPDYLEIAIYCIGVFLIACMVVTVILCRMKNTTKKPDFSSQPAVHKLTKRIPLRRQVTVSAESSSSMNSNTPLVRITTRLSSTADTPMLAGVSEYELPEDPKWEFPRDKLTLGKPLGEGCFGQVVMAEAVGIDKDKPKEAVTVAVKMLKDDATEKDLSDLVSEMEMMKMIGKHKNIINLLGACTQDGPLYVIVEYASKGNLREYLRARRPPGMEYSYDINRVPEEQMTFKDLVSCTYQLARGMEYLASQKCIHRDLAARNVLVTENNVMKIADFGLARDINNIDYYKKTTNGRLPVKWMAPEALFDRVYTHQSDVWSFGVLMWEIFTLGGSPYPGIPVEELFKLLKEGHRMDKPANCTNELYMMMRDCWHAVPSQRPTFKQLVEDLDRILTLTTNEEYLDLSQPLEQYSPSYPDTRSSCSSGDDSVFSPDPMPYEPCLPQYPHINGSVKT
Test: Kinase assay, binding constants (Kd), kinase-tagged T7 phage, qPCR
Listed below: Kd values for each entry.

Reference set (8 entries):
MOLECULE	Kd
COc1cc2[nH]nc(-c3cnc(N4CCC4)c(C#N)c3)c2cc1O[C@H](C)c1c(Cl)cnnc1Cl [Example 360]	20 to 100 nM
CC(C)N1CC2(CN(c3ccc(-c4n[nH]c5ccc(O[C@H](C)c6c(Cl)cncc6Cl)cc45)cn3)C2)C1 [Example 31]	1 to 20 nM
C[C@@H](Oc1ccc2[nH]nc(-c3cnc(N4CCC5(CCCN5C)CC4)nc3)c2c1)c1c(Cl)cncc1Cl [Example 52]	20 to 100 nM
COc1cc2[nH]nc(-c3ccc(N4CCC4)nc3)c2cc1O[C@H](C)c1c(C)cnnc1C [Example 310]	1 to 20 nM
C[C@@H](Oc1ccc2[nH]nc(-c3cnc(N4CC5C(O)C5C4)c(C#N)c3)c2c1)c1c(Cl)cncc1Cl (stereo partly shown) [Example 331]	100 to 300 nM
C[C@@H](Oc1ccc2[nH]nc(-c3ccc(N4CCN(C(=O)N(C)C)CC4)nc3)c2c1)c1c(Cl)cncc1Cl [Example 5]	1 to 20 nM
C[C@@H](Oc1cc2c(-c3cnc(N4CC5(CCCN(S(C)(=O)=O)C5)C4)c(C#N)c3)n[nH]c2cc1F)c1c(Cl)cncc1Cl [Example 380]	> 300 nM
COC(=O)N1CC2(C1)CN(c1ccc(-c3n[nH]c4ccc(O[C@@H](C)c5c(Cl)cnc(F)c5Cl)cc34)cn1)C2 [Example 198]	> 300 nM

Exercise: Identify Kd associated with the molecule C[C@@H](Oc1ccc2[nH]nc(-c3ccc(N4CCCNC(=O)C4)nc3)c2c1)c1c(Cl)cncc1Cl [Example 35]
Solution: 20 to 100 nM

Exercise: Identify Kd associated with the molecule C[C@@H](Oc1ccc2[nH]nc(-c3ccc(N4CCC5(CCC(=O)N5C)CC4)nc3)c2c1)c1c(Cl)cncc1Cl [Example 40]
Solution: 1 to 20 nM

Exercise: Identify Kd associated with the molecule C[C@@H](Oc1ccc2[nH]nc(-c3ccc(N4CCN(S(C)(=O)=O)CC4=O)nc3)c2c1)c1c(Cl)cncc1Cl [Example 39]
Solution: 20 to 100 nM

Exercise: Identify Kd associated with the molecule COC(=O)N1CCC2(CC1)CN(c1ccc(-c3n[nH]c4ccc(O[C@H](C)c5c(Cl)cncc5Cl)cc34)cn1)C2 [Example 125]
Solution: 20 to 100 nM

Exercise: Identify Kd associated with the molecule CCC(=O)N1CCN(c2ccc(-c3n[nH]c4ccc(O[C@H](C)c5c(Cl)cncc5Cl)cc34)cn2)CC1 [Example 9]
Solution: 1 to 20 nM

Exercise: Identify Kd associated with the molecule C[C@@H](Oc1ccc2[nH]nc(-c3ccc(N4CC5(C4)CN(S(C)(=O)=O)C5)nc3)c2c1)c1c(Cl)cnnc1Cl [Example 246]
Solution: 1 to 20 nM

Exercise: Identify Kd associated with the molecule C[C@@H](Oc1ccc2[nH]nc(-c3ccc(N4CC5(CCOC5)C4)nc3)c2c1)c1c(Cl)cnc(F)c1Cl [Example 204]
Solution: 1 to 20 nM

Exercise: Identify Kd associated with the molecule C[C@@H](Oc1ccc2[nH]nc(-c3cnc(N4CCC5(CCNC5=O)CC4)nc3)c2c1)c1c(Cl)cncc1Cl [Example 55]
Solution: 20 to 100 nM

Exercise: Identify Kd associated with the molecule C[C@@H](Oc1ccc2[nH]nc(-c3ccc(N4CCC5(CCNC5=O)CC4)nc3)c2c1)c1c(Cl)cncc1Cl [Example 27]
Solution: 1 to 20 nM

Exercise: Identify Kd associated with the molecule C[C@@H](Oc1ccc2[nH]nc(-c3ccc(N4CCNCC4=O)nc3)c2c1)c1c(Cl)cncc1Cl [Example 37]
Solution: 20 to 100 nM

Exercise: Identify Kd associated with the molecule COc1cc2[nH]nc(-c3ccc(N4CC5(C4)CN(S(C)(=O)=O)C5)nc3)c2cc1O[C@@H](C)c1c(C)cnnc1C [Example 192]
Solution: 20 to 100 nM
